assayRemarks: yeast display, Sf9 membrane polyspecificity reagent, FACS + sequencing; frameworks hold sequencing errors
measurementName: polyreactivity (PSR sort gate)

sequenceInput	polyreactivity (PSR sort gate)
QVQLVESWGGLVQAGGSLPLRCAASGRTFVQYAMGWYRQAPGKERELVAAISLSGGRTYYADSVKGRFTISRDNAKNTVYLQMNSLKPEDTAVYYFSARDSSRYYWGQGTQVTVSS	high polyreactivity
QVQLVESGGGLVQAGGSLRLSCAASGRNFHRYAMGWYRQAPGKERELVATIRSGGGTYYADSVKGRFTISRDNAKNTVYLQMNSLKPEDTAVYDCNAQSSYSYFSGYDYWGQGTQVTVSS	low polyreactivity
QVQLVESGGGLVQAGGSLRLSCAASGFTFSNNVMGWYREAPGKERELVAAISRRGGSTYYADSVKGRFTISRDNAKNTVYLQMNSLKPEDTAVYYCAATYPYYVDTSPGKDDHWRQGTQVTVSS	high polyreactivity
QVQLVESGGGLVQAGGSLRLSCAASGFTFSLYAMGWYRQAPGKEWEVVAAISSRGGTTYYADSVKGRFTISRDNAKNTVYLQMNILKAEDTAVYYCAARYVYTRSAFDYWGQGTQVTVSS	high polyreactivity

Attention now turns to another entry.
Task item: Sample QVQLVESGGGLVQAGGSLRLSCAASGRTFIKYAMGWYRPAPGKERELVAAITHRGTNTYYADSVKGRFTISRDNAKYTVYLQMNSLKPEDTAVYYCAAAAPSYPSYDYWGQGTQVTVSS — what was its polyreactivity (PSR sort gate)?
Reply: low polyreactivity

----------
assayRemarks: yeast display, Sf9 membrane polyspecificity reagent, FACS + sequencing; frameworks hold sequencing errors
measurementName: polyreactivity (PSR sort gate)

sequenceInput	polyreactivity (PSR sort gate)
QVQLVESGGGIVQAGGRLRLSCAASGNTFQDYAMGWYRQAPGKERELVAAINSGGSTNYADSVKGRFTISRDNAKNTVYLQMNSLKPEDTAVYYCAAEPGEGFDYWGQGTQVTVSS	low polyreactivity
QVQLVESGGGLVQAGGSLRLSCAASGFNFPGNAIGWYTPAPGKERELVATISSGGSTKYADSVKGRFTISRDNAKNTVYLQMNSLKPEDTAVYYFAARVYLGVFDYYYWGQGTQVTVSS	low polyreactivity
QDQLVESGGGLVQAGGILSLICAASGITFHSNDMGWYRQAPGKERELVAAISWSDDTTYYADSVKGRFTISRDNAKNTVYLQMNSLKPEDTAVYYCAAEFFGSYGYYEYDYWGQGSQVTVSS	high polyreactivity
QVQLVESGGGLVQAGGSLRLSSAGSGSTLAYNAMGWYRQAPGKERELVAAISRGTSTYYADSVKGRFTISRDNAKNTVYLQMNSLKPEDTEVYYCAADYVIQYREYDSWGQGTQVTVSS	low polyreactivity

Now for a further sequence.
Task item: For QVHLVESGGGLVQAGGSLRLSCAASGRTFAPNAMGWYIQAPGKERELVAAISYNSGTTYYADSVKGRFTISRDNAKNTVYLQMNSLKPEDTAVYYCAARRYYKYDWGQGTQVTVSS , what is its reported polyreactivity (PSR sort gate)?
Reply: high polyreactivity

----------
assayRemarks: yeast display, Sf9 membrane polyspecificity reagent, FACS + sequencing; frameworks hold sequencing errors
measurementName: polyreactivity (PSR sort gate)

Example cases with answers are listed next.
sequenceInput	polyreactivity (PSR sort gate)
QVQVVESGGGLVQAGGSLRLSCAASGSIFPVYAMGWYRQAPGKERELVAAISSGGSTNYADSVKGRFTISRDNAKNTVYLQRNSLKPEDTAVYYSARRWYYVRHGYWGQGTQVTVSS	high polyreactivity
QVQLVESGGGLVQAGGSLRLSCAASGGIFRHNAMGWYRQAPGKEREFVAAISRSGGNTYYADSVKGRFTISRDNAKNTVYLQMNSLKPEDTAVYYCNKIEYDSWADHVYWGQGTQVTVSS	low polyreactivity
QVQLVESGGGLVQAGGSLRLSCAASGIIIDYNAMGWYRQAPGKERELVAAISSRGGSTYYADSVKGRFTISRDNAKNPVYFQMNSLKPEDTAVYYCAGRPDHQRYDYWGQGSQVTVSS	low polyreactivity
QVQLVESGGGLVQAGGSLRLSCAASGSTFYSNAMGWYRQAPGKERELVAAITDGDRTNYADSVKGRFTISRDNAKNTVYLQMNSLKPEDTAVYYCAADYAVYLGVSPDYGYWGQGTQVTVSS	low polyreactivity

Task item: Could you share which polyreactivity (PSR sort gate) value was measured for QVQLVESGGGLDQAGGTLRLSSAASGFTFGSYAMRWYRQAHGKERELVAAITRSGSTTYYADSVKGRFTISRDNAKNTFFLQMNSLKPEDTAVDYCNAYTVRSYRFDYWGQGTQVTVSS ?
Reply: high polyreactivity

Task item: Need polyreactivity (PSR sort gate), item QVQLVESGGGLVQAGGSLRLSCAASGRIFGGNAMGWYRKAPGTEREVVAAISWIGGTTYYADSVKGRFTISRDNAKNTVYLQMISLKPEDTAVYYCAAYRYRPHDHRYYRYDYWGQGTQVTVSS
Reply: high polyreactivity

Task item: If you can, please state the reported polyreactivity (PSR sort gate) value of QVNLVESGGGLVQAGGSLRLSCAASGLIFFYAMGWYRQAPGKERELVAGISSGGNTNYGDSVKGRFTISRDNAKNTVYLQMNSLKPEDTAVYYCNARGFTGDHQWYLWARPLYDYWGQGTQVTVSS .
Reply: high polyreactivity

----------
assayRemarks: yeast display, Sf9 membrane polyspecificity reagent, FACS + sequencing; frameworks hold sequencing errors
measurementName: polyreactivity (PSR sort gate)

The cases that follow already have their polyreactivity (PSR sort gate) on record.
sequenceInput	polyreactivity (PSR sort gate)
QVQLVESGGGLVQAGGSLRLSCAASGSIFYYNAMGWYRQAPGQERELVAGINYSGGSTYYADSVKGRFTISRDNAKNTVYLQMNSLIPEDTADYYCAARPRYLNARKYYYWGLGTQVTVSS	high polyreactivity
QVQLVESGGGLVQAGGSLRLSCAASRRTFWNYAMGWYRQAPGKESEFVAVIRFSDGSTYYADSVKGRFTISRDNAKTTVYLQMHSLKPEDTPVYYCAAKGPRRWGSGFDYWGQRTQVTVSS	low polyreactivity
QVQLVESGGGLVQAGGSLRLSCAASGSIFSLYAMGWYRQAPGKERELVAAITWTGGSTYYADSVKGRFTISRDNAKNTVYLQMNSLKPEDTAVYYCDARRVVYRYYWYSAYDYWGRGTQVTVSS	high polyreactivity
QVQLVESGGGLVQAGGSLRLSCAASGFTFYPYAMGWYRQAPGKERELVAAIRISGGSTYYADSVKGRFTISRDTAKNTVYLQMNSLKPEDTAVYYCAAKYPYYSSYAYGYWGQGTQVTVSS	high polyreactivity

Task item: Please look up its polyreactivity (PSR sort gate): QVQLVESGGGLVQAGGSLRLSCAASGTFYWNVMGWYRQAPGKEREFVASITLSGTSTYYADSVKVRFTISRDNAKNTVYLQMNSLKPEDTAVYYCAVAARWPAPVPHYYYWGQGTQVTVSS
Reply: low polyreactivity

Task item: # get_value(readout='polyreactivity (PSR sort gate)', item= QVQLVESGGGLVQAGGSLRLSCAASGSTFFLYAMGWYRQAPGKERELVAAITYTDGDTYYADSVKGRFTISRDNAKNTVYLQMNSLKPEDTAVFYCNAGGDEPVYGSGYDYWGQGTQVTVSS )
Reply: low polyreactivity

Task item: Request the reported polyreactivity (PSR sort gate) associated with QVQLVESGGGLVQAGGSLRLSCAASGRIFHNYAMGWYRQAPGKERELVAGISSRGGSTYYADSVKGRFTISRDNAKNTVYLQMNSLKPEDTAVYYCAKDKSPYGYATNQYRKYYYWGQGTQVTVSS
Reply: low polyreactivity

Task item: What does the record list as polyreactivity (PSR sort gate) for QVQLVESGGGLVQAGGSLRLSCAASGITFPRYAMGWYRQAPGKERELVATITRSGGGTYYADSVKGRFTISRDNAKNTVNLQMNSLKPEDTAVYYCAAGALQRGVYGYGYWGQGTQVTVSS ?
Reply: high polyreactivity

Task item: Form field: reported polyreactivity (PSR sort gate) of QVQLGESGGGLVQAGGSLRLSCAASGSIFWLYAMGWYRQAPGKERELVAAIDSGDSRKYADSVKGRFTISRDNAKNTVYLQMNSLTPEDTAVYYCNASRRYHVRAPYDYWGQGTLVTVSS
Reply: low polyreactivity

Task item: Any idea what its polyreactivity (PSR sort gate) is? The sequence is QVQLVESGGGLVQAGGSLRLSCAASGRIFNYYTMGWYRQAPGKEREFVAAISRSGGSTFYADSVKGRFTISRDNAKNTVYLQMNSLKPEDTAVYYCAARSYSRPDGGYVQLDYWGQGTQVTVSS
Reply: high polyreactivity

Task item: Name the recorded polyreactivity (PSR sort gate) for QVQLVESGGGLVQAGGSLRLSCAASGFISGSYAMGWYRQAPGKDREFVASISLSDGSTTYADSVKGRFTISRDTAKNPVYLQMNSLKPEDTAVYYCAVQFYYPFTGGTIYEYWGQGTQVTVAS .
Reply: low polyreactivity
